Data credit: paper PMC11291303

- STUDY_TARGET: turnip mosaic virus (TuMV) isolate YC5 VPg R118H (turnip mosaic virus isolate YC5)
- PROTOCOL_DESCRIPTION: two-hybrid
ASSAY_READOUT: percent stronger binding than VPg^wt (%)
Enter your answer as a number in %; do not include the unit.

The measured percent stronger binding than VPg^wt associated with MYOSIN 3 (MYOS3) protein (natural protein) reads 27.5

substance PYRUVATE ORTHOPHOSPHATE DIKINASE (PPDK) REGULATORY PROTEIN 1 (RP1) (natural protein) , percent stronger binding than VPg^wt observed: 47.1

Lookup result for MITOCHONDRIAL GLYCOPROTEIN FAMILY PROTEIN (AT1G15870) (natural protein) ; measured percent stronger binding than VPg^wt: 36.2

Lab note: measured percent stronger binding than VPg^wt of PROLINE RICH MITOTIC CHECKPOINT CONTROL FACTOR (PRCC) (natural protein) was 22.5
